Values were extracted from ChEMBL document CHEMBL1177882.

tested on: Actinomyces viscosus; assay: Antibacterial activity against Actinomyces viscosus ATCC 15987 after 48 hrs by broth microdilution method; format: functional; conditions: ATCC 15987, 48 h
Please assign Not fulfilled whenever MBC is at or above 30 µg/mL, and Fulfilled whenever it is below.

>  <Compound>
COc1ccc(/C=C/[C@](C)(/C=C/c2ccc(O)cc2)CCC=C(C)C)cc1

>  <Class assignment>
Fulfilled

$$$$
>  <Compound>
C=C[C@@](C)(/C=C/c1ccc(O)c(N)c1)CCC=C(C)C

>  <Class assignment>
Not fulfilled

$$$$
>  <Compound>
C=C[C@@](C)(/C=C/c1ccc(OC)cc1)CCC=C(C)C

>  <Class assignment>
Not fulfilled

$$$$
>  <Compound>
C=C[C@@](C)(/C=C/c1ccc(O)c([N+](=O)[O-])c1)CCC=C(C)C

>  <Class assignment>
Not fulfilled

$$$$

Quick check: MBC of `COc1ccc(/C=C/[C@@](C)(/C=C/c2ccc(O)cc2)CCC=C(C)C)cc1C=O` under 30 µg/mL?
Not fulfilled

A record lists `COc1ccc(/C=C/[C@@](C)(/C=C/c2ccc(O)cc2)CCC=C(C)C)cc1CO` . Is its MBC below 30 µg/mL?
Fulfilled

Does the reported MBC of `C=C[C@@](C)(/C=C/c1ccc(O)cc1)CC/C=C(/C)C=O` stay below 30 µg/mL?
Not fulfilled

###

test system: Porphyromonas gingivalis; test: Antibacterial activity against Porphyromonas gingivalis ATCC 33277 after 48 hrs by broth microdilution method; assay type: functional; details: ATCC 33277, 48 h
Readout: MBC (µg/mL)
Entry rule: numbers only, all in µg/mL.

>  <Cpd smiles>
C=C[C@@](C)(/C=C/c1ccc(O)cc1)CC/C=C(/C)C=O

>  <Assayed target>
Porphyromonas gingivalis

>  <Unit symbol>
µg/mL

>  <MBC>
16

$$$$
>  <Cpd smiles>
CC[C@](C)(CCCC(C)C)CCc1ccc(O)cc1

>  <Assayed target>
Porphyromonas gingivalis

>  <Unit symbol>
µg/mL

>  <MBC>
2

$$$$
>  <Cpd smiles>
CC(C)=CCC[C@](C)(/C=C/c1ccc(O)cc1)/C=C/c1ccc(F)cc1

>  <Assayed target>
Porphyromonas gingivalis

>  <Unit symbol>
µg/mL

>  <MBC>
4

$$$$
>  <Cpd smiles>
C=C[C@@](C)(/C=C/c1ccc(O)cc1)CCC=C(C)C

>  <Assayed target>
Porphyromonas gingivalis

>  <Unit symbol>
µg/mL

>  <MBC>
1

$$$$
>  <Cpd smiles>
COc1ccc(/C=C/[C@@](C)(/C=C/c2ccc(O)cc2)CCC=C(C)C)cc1

>  <Assayed target>
Porphyromonas gingivalis

>  <Unit symbol>
µg/mL

>  <MBC>
1

$$$$

Now let's try a different one.
Fill in: MBC of `COc1ccc(/C=C/[C@@](C)(/C=C/c2ccc(O)cc2)CCC=C(C)C)cc1C=O` is ___
2

###

Reported values of MBC for individual entries
test system: Prevotella intermedia; assay: Antibacterial activity against Prevotella intermedia ATCC 25611 after 48 hrs by broth microdilution method; format: functional; conditions: ATCC 25611, 48 h
Give the value, in units of µg/mL, as a plain number.

>  <Compound>
COc1ccccc1/C=C/[C@@](C)(/C=C/c1ccc(O)cc1)CCC=C(C)C

>  <Readout>
MBC

>  <Observed measurement>
4

$$$$
>  <Compound>
C=C[C@@](C)(/C=C/c1ccc(O)c([N+](=O)[O-])c1)CCC=C(C)C

>  <Readout>
MBC

>  <Observed measurement>
128

$$$$
>  <Compound>
C=C[C@@](C)(/C=C/c1ccc(O)cc1)CCC=C(C)C [BAKUCHIOL]

>  <Readout>
MBC

>  <Observed measurement>
2

$$$$

Which MBC value belongs to Oc1cc(Cl)ccc1Oc1ccc(Cl)cc1Cl [TRICLOSAN] ?
1
